Test system: DENV2 New Guinea C
Assay: Anti-Dengue virus cytoprotection assay
Assay type: cell-based, Dengue virus type 2
Conditions: DENV2, BHK-21, read-out: DENV2 New Guinea C EC50
Method: Cell Preparation—BHK21 cells (Syrian golden hamster kidney cells, ATCC catalog #CCL-I 0), Vero cells (African green monkey kidney cells, ATCC catalog #CCL-81), or Huh-7 cells (human hepatocyte carcinoma) were passaged in DMEM supplemented with 10% FBS, 2 mM L-glutamine, 100 U/mL penicillin, and 100 μg/mL streptomycin in T-75 flasks prior to use in the antiviral assay. […] Total cell and viability quantification was performed using a hemocytometer and Trypan Blue dye exclusion. […]
pEC50: −log10 of the molar value.

- Compound: "C#C[C@@]1(O)[C@H](O)[C@@H](CO[P@@](=O)(N[C@@H](C)C(=O)OC(C)C)Oc2ccccc2)O[C@H]1n1ccc2c(N)ncnc21 [drawing 740]"
  pEC50: 4.56

###

Biological target: ZIKV NS5 RdRp (Zika virus, UniProt Q32ZE1)
Construct: activity of select analog triphosphates against the ZIKV NS5 RdRp
Sequence (Q32ZE1 2517-3419): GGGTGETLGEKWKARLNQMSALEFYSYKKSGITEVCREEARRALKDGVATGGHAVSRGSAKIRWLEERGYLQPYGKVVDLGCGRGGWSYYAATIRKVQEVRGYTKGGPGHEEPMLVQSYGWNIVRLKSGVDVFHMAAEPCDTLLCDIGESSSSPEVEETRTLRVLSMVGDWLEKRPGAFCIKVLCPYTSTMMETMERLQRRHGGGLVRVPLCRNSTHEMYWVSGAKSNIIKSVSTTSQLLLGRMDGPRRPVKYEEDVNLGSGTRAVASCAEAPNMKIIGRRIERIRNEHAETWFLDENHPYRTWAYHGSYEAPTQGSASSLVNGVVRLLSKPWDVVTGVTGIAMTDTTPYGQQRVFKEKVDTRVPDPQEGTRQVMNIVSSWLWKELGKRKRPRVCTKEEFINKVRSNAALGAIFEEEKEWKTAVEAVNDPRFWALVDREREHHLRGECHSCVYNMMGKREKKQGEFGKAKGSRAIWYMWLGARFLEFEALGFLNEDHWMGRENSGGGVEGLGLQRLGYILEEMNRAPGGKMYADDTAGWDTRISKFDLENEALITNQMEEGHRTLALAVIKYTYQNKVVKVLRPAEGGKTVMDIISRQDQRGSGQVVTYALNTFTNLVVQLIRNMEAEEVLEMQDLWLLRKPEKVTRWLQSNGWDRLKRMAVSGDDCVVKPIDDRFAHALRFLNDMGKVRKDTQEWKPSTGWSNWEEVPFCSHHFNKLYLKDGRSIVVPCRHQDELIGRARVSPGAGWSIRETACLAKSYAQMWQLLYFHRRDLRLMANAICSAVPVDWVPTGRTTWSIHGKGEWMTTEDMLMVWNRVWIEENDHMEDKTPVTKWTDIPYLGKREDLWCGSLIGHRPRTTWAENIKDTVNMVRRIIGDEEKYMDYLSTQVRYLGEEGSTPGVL
Assay type: biochemical
Conditions: analog triphosphates against ZIKV NS5 RdRp

- Molecule: "C#CC1(O)C(O)[C@@H](COP(=O)(O)OP(=O)(O)OP(=O)(O)O)O[C@H]1n1cnc2c(N)ncnc21 (stereo partly drawn)"
  ZIKV Polymerase Assay Discrimination: 5
- Molecule: "CC1(O)C(O)[C@@H](COP(=O)(O)OP(=O)(O)OP(=O)(O)O)O[C@H]1n1ccc(N)nc1=O (stereo partly drawn)"
  ZIKV Polymerase Assay Discrimination: 7
- Molecule: "CC1(O)C(O)[C@@H](COP(=O)(O)OP(=O)(O)OP(=O)(O)O)O[C@H]1n1ccc(=O)[nH]c1=O (stereo partly drawn)"
  ZIKV Polymerase Assay Discrimination: 53
- Molecule: "C#CC1(O)C(O)[C@@H](COP(=O)(O)OP(=O)(O)OP(=O)(O)O)O[C@H]1n1ccc(=O)[nH]c1=O (stereo partly drawn)"
  ZIKV Polymerase Assay Discrimination: 5
- Molecule: "CC1(O)C(O)[C@@H](COP(=O)(O)OP(=O)(O)OP(=O)(O)O)O[C@H]1n1cnc2c(N)ncnc21 (stereo partly drawn)"
  ZIKV Polymerase Assay Discrimination: 12
- Molecule: "CC1(O)C(O)[C@@H](COP(=O)(O)OP(=O)(O)OP(=O)(O)O)O[C@H]1n1cnc2c(=O)[nH]c(N)nc21 (stereo partly drawn)"
  ZIKV Polymerase Assay Discrimination: 13

###

Reported pEC50 by item:
Tested on: ZIKV
Test: ZIKV infectious (cytoprotection, XTT) assay
Type: cell-based, Zika virus
Conditions: Zika virus, Vero, read-out: ZIKV EC50
pEC50: −log10 of the molar value.
Measurement kind: pEC50

- Compound: "C#C[C@@]1(O)[C@H](O)[C@@H](CO[P@@](=O)(N[C@@H](C)C(=O)OC(C)C)Oc2ccccc2)O[C@H]1n1cc(F)c(=O)[nH]c1=O"
  Reported value: "< 4.00"
- Compound: "C#C[C@@]1(O)[C@H](O)[C@@H](CO[P@@](=O)(N[C@@H](C)C(=O)OC(C)C)Oc2ccccc2)O[C@H]1n1ccc(=O)[nH]c1=O [drawing 746]"
  Reported value: "< 4.00"

###

Measured CC50 at 5 days of individual entries
Test: Cytotoxicity in Vero cells (XTT)
Assay type: cell-based, African green monkey
Settings: African green monkey

- Molecule: "C#CC1(O)C(O)[C@@H](COP(=O)(OCOC(=O)C(C)(C)C)OCOC(=O)C(C)(C)C)O[C@H]1n1ccc(=O)[nH]c1=O (stereo partly drawn) [drawing 679]"
  Units of measure: "µM"
  Qualifier operator: "="
  CC50 at 5 days: 11
- Molecule: "CC1(O)C(O)[C@@H](CO)O[C@H]1n1cnc2c(=O)[nH]c(N)nc21 (stereo partly drawn)"
  Units of measure: "µM"
  Qualifier operator: ">"
  CC50 at 5 days: 100
- Molecule: "CC1(O)C(O)[C@@H](CO)O[C@H]1n1ccc(N)nc1=O (stereo partly drawn)"
  Units of measure: "µM"
  Qualifier operator: "="
  CC50 at 5 days: 9.57
- Molecule: "C#CC1(O)C(O)[C@@H](CO)O[C@H]1n1ccc2c(N)ncnc21 (stereo partly drawn)"
  Units of measure: "µM"
  Qualifier operator: "="
  CC50 at 5 days: 35.4
- Molecule: "CC(C)(C)C(=O)OCOP(=O)(OCOC(=O)C(C)(C)C)OC[C@H]1O[C@@H](n2ccc(=O)[nH]c2=O)C(C)(O)C1O (stereo partly drawn)"
  Units of measure: "µM"
  Qualifier operator: "="
  CC50 at 5 days: 26.4
- Molecule: "CC1(O)C(O)[C@@H](CO)O[C@H]1n1cnc2c(N)ncnc21 (stereo partly drawn) [drawing 678]"
  Units of measure: "µM"
  Qualifier operator: ">"
  CC50 at 5 days: 100
